Listing of entries alongside the reported TGI.
System: SW-620 colon
test: NCI tumour cell line growth inhibition, 48 h

compound: COC(=O)C1C2CCCN2OC1(C)CO (stereo not drawn)
TGI: > 100 µM
//
compound: NC(CCCCNC(=O)C(Cc1ccccc1)NC(=O)OCc1ccccc1)C(=O)NC(CCCCNC(=O)C(Cc1ccccc1)NC(=O)OCc1ccccc1)C(=O)NC(CCCCNC(=O)C(Cc1ccccc1)NC(=O)OCc1ccccc1)C(=O)NC(CCCCNC(=O)C(Cc1ccccc1)NC(=O)OCc1ccccc1)C(=O)NC(CCCCNC(=O)C(Cc1ccccc1)NC(=O)OCc1ccccc1)C(=O)NC(CCCCNC(=O)C(Cc1ccccc1)NC(=O)OCc1ccccc1)C(=O)O (stereo not drawn)
TGI: > 100 µM
//
compound: Cc1cccc(NC(=S)N/N=C(/c2ccccc2)c2ccccn2)c1
TGI: 20.4 µM

====

System: HL-60(TB) leukemia
test: NCI tumour cell line growth inhibition, 48 h

compound: Cc1ccccc1/C=C1\CN(C(=O)OC(C)(C)C)C/C(=C\c2ccccc2C)C1=O
GI50: 2.47 µM
//
compound: NC[C@@](O)(c1ccc(Cl)cc1)c1ccc(-c2cn[nH]c2)cc1
GI50: 1.7 µM
//
compound: Cc1nn(-c2ccc(Br)cc2)c(C)c1CC(=O)c1cc(O)ccc1O
GI50: 11.9 µM
//
compound: CCN1CCN(C(=O)[C@]23CCC(C)(C)C[C@@H]2C2=CC[C@@H]4[C@@]5(C)C/C(=C/c6cccnc6)C(=O)C(C)(C)[C@@H]5CC[C@@]4(C)[C@]2(C)CC3)CC1
GI50: 0.443 µM
//
compound: Nc1nc2c(c3cnccc13)C(c1cccc(Cl)c1)Cc1cnccc1-2 (centres undefined)
GI50: 0.278 µM
//
compound: NC(N)=Nc1nc2ccccc2[nH]1
GI50: 3.87 µg/mL
//
compound: Nc1c(C(=O)Nc2ccccc2)sc2nc3c(cc12)CCCC3
GI50: 0.299 µM
//
compound: S=C(N/N=C(/c1ccccc1)c1ccccn1)Nc1cccc(Cl)c1
GI50: 0.0152 µM
//
compound: CC(C)[C@@H]1CC[C@@H]2[C@@H]1[C@H](OC(=O)/C=C/c1ccccc1)[C@]1(C(C)C)C[C@@H](OC(=O)CO)[C@@]2(C)O1
GI50: 8.07 µM
//
compound: O=C(Nc1ccc(Br)cc1F)c1cc(Br)ccc1O
GI50: 0.59 µM
//
compound: C[C@@]1(N2C(=O)OC[C@@H]2c2ccccc2)C(=O)N([C@H](CC(=O)N2CCC(N3CCCCC3)CC2)C(=O)NCc2cccc(C(F)(F)F)c2)[C@@H]1/C=C/c1ccccc1
GI50: 2.13 µM
//
compound: Oc1cc2ccccc2cc1-c1n[nH]c(=S)n1-c1ccc(Cl)cc1
GI50: 19 µM
//
compound: O=C(/C=C/c1cccnc1)c1ccccc1O
GI50: 18.1 µM
//
compound: CC/C=C\C/C=C\C[C@H]1C/C=C2/C(=O)C=C[C@H]2C/C=C\CCC(=O)O1
GI50: 3.55 µM

====

System: MDA-MB-231 breast
test: NCI tumour cell line growth inhibition, 48 h
Listing of entries alongside the reported TGI.

compound: COc1ccc(CNc2nc(NCc3ccc(OC)cc3)c3n[nH]c(C(C)C)c3n2)cc1
measured.on: MDA-MB-231 breast
TGI: 21.8 µM
//
compound: C[C@@]1(N2C(=O)OC[C@@H]2c2ccccc2)C(=O)N([C@H](CC(=O)N2CCC(N3CCCCC3)CC2)C(=O)NCc2cccc(C(F)(F)F)c2)[C@@H]1/C=C/c1ccccc1
measured.on: MDA-MB-231 breast
TGI: 4.03 µM
//
compound: COc1ccc(-c2nocc2-c2cc(OC)c(OC)c(OC)c2)cc1
measured.on: MDA-MB-231 breast
TGI: > 58.4 µM
//
compound: Cc1nn(-c2ccc(Br)cc2)c(C)c1CC(=O)c1cc(O)ccc1O
measured.on: MDA-MB-231 breast
TGI: 15 µM
//
compound: O=C(CCl)Nc1ccc2c(c1)C(=O)c1ccc(NC(=O)CCl)cc1C2=O
measured.on: MDA-MB-231 breast
TGI: 2.36 µM
//
compound: COc1ccc(CC2C3=C(CCCC3)CCN2C)cc1 (stereo unspecified)
measured.on: MDA-MB-231 breast
TGI: > 100 µM
//
compound: O=C(/C(=C/c1cccs1)c1ccccc1)c1ccccc1
measured.on: MDA-MB-231 breast
TGI: > 100 µM
//
compound: CCCCCCCC/C=C/CCCCCCCC1CC(O)C(=O)O1 (stereo unspecified)
measured.on: MDA-MB-231 breast
TGI: > 100 µM
//
compound: COc1ccc(/C=C/C(=O)c2ccc(Nc3ccnc4cc(Cl)ccc34)cc2)cc1
measured.on: MDA-MB-231 breast
TGI: > 100 µM
//
compound: C[C@]12CC[C@H]3[C@@H](C[C@@H]4N=C(c5ccc(O)cc5)S[C@@]45C[C@H](O)CC[C@]35C)[C@@H]1CC[C@@H]2O
measured.on: MDA-MB-231 breast
TGI: 32.8 µM
//
compound: COC(=O)[C@@H]1C[C@]2(CC=C(C)C)c3ccccc3N(S(=O)(=O)c3ccccc3)[C@@H]2N1C(=O)OC
measured.on: MDA-MB-231 breast
TGI: > 100 µM
//
compound: CC1OC(OC2CC(O)(C(=O)CO)Cc3c(O)c4c(c(O)c32)C(=O)c2ccccc2C4=O)CC(N)C1O (stereo unspecified)
measured.on: MDA-MB-231 breast
TGI: 7.4 µM
//
compound: CC1Cc2cc(O)ccc2C2[C@@H]1C1CC[C@H](O)[C@@]1(C)C[C@@H]2O[N+](=O)[O-] (stereo partly specified)
measured.on: MDA-MB-231 breast
TGI: 85.8 µM
//
compound: Cc1ccccc1/C=C1\CN(C(=O)OC(C)(C)C)C/C(=C\c2ccccc2C)C1=O
measured.on: MDA-MB-231 breast
TGI: 12.6 µM
//
compound: Cn1c(=S)sc2nc3ccccc3n2c1=S
measured.on: MDA-MB-231 breast
TGI: 38 µM
//
compound: C/C(=N\Nc1nc2ccccc2o1)c1ccncn1
measured.on: MDA-MB-231 breast
TGI: 97.1 µM
//
compound: CC(=O)O[C@H]1[C@@H](N2CCN(C)CC2)C[C@H]2[C@@H]3CC=C4C[C@@H](N5CCCC5)CC[C@]4(C)[C@H]3CC[C@@]21C
measured.on: MDA-MB-231 breast
TGI: > 100 µM
//
compound: COC(=O)CCC(=O)c1ccc2c(c1)CC1(C2)Cc2ccc3c(c2C1)CCCC3=O (stereo unspecified)
measured.on: MDA-MB-231 breast
TGI: > 100 µM
//
compound: CC1=CC2C(C(C)C)CC1C1C(=O)OC(=O)C21 (stereo unspecified)
measured.on: MDA-MB-231 breast
TGI: > 100 µM
//
compound: O=c1cccc(C#CC#C/C=C/CO)o1
measured.on: MDA-MB-231 breast
TGI: 4.03 µM
//
compound: Cc1cccc(NC(=S)N/N=C(/c2ccccc2)c2ccccn2)c1
measured.on: MDA-MB-231 breast
TGI: 6.73 µM
//
compound: COC(Cc1ccccc1)NC(C)=O (stereo unspecified)
measured.on: MDA-MB-231 breast
TGI: > 100 µM
//
compound: c1ccc2c(c1)C(=Nc1ccc(N=C3c4ccccc4-c4ccccc43)cc1)c1ccccc1-2
measured.on: MDA-MB-231 breast
TGI: > 100 µM
//
compound: CN1CCCCC1CCN1c2ccccc2Sc2ccc(S(C)=O)cc21 (stereo unspecified)
measured.on: MDA-MB-231 breast
TGI: > 100 µM
//
compound: CCCCCCCCCC(CCCC(O)CC(=O)O)OC1OC(COC2OC(C)C(O)C(O)C2O)C(O)C(O)C1OC1OC(CO)C(O)C(O)C1OC1OC(C)C(O)C(O)C1O (stereo unspecified)
measured.on: MDA-MB-231 breast
TGI: > 40 µM
//
compound: CN1CCCN(C(c2ccccc2)c2ccc(Br)cc2)CC1 (stereo unspecified)
measured.on: MDA-MB-231 breast
TGI: 7.81 µM
//
compound: CC1(C)O[C@@H]2[C@@H]3OC(=O)C[C@@H]3[C@@H](COCc3ccccc3)[C@@H]2O1
measured.on: MDA-MB-231 breast
TGI: > 100 µM
//
compound: CC(=O)OC1COC(Nn2c(=O)[nH]c3ccccc3c2=O)C(OC(C)=O)C1OC(C)=O (stereo unspecified)
measured.on: MDA-MB-231 breast
TGI: > 100 µM
//
compound: Cc1cc(C#N)c(Nc2c(C)cccc2[N+](=O)[O-])s1
measured.on: MDA-MB-231 breast
TGI: 79.4 µM
//
compound: CCOP(C)(=O)C(Nc1ccc(F)cc1)c1ccc(F)cc1 (stereo unspecified)
measured.on: MDA-MB-231 breast
TGI: > 100 µM
//
compound: CC(C)(C)NC1C2CCC(C)(C1O)C2(C)C (stereo unspecified)
measured.on: MDA-MB-231 breast
TGI: > 100 µM
//
compound: CN1CCN(c2ccc(-n3cc(C(=O)O)c(=O)c4cc(F)c(N5CCN(C)CC5)cc43)nc2)CC1
measured.on: MDA-MB-231 breast
TGI: > 100 µM
//
compound: N/N=C(\C(=O)Nc1ccc([N+](=O)[O-])cc1)C(C1=Nc2cc([N+](=O)[O-])ccc2NC1)[N+](=O)[O-] (stereo unspecified)
measured.on: MDA-MB-231 breast
TGI: > 100 µM
//
compound: O=C(O)/C=C\C(=O)Nc1ccc2c(c1)C(=O)c1cc(F)ccc1-2
measured.on: MDA-MB-231 breast
TGI: > 100 µM
//
compound: CC1=C(C)C(=O)OC([C@](C)(O)[C@]2(O)CC[C@@]3(O)[C@@H]4C[C@H]5O[C@]56CC=CC(=O)[C@]6(C)[C@H]4CC[C@]23COC(=O)c2ccc(C)o2)C1 (stereo partly specified)
measured.on: MDA-MB-231 breast
TGI: > 24.4 µM
//
compound: CCN(CC)c1nc(N(C)C)c2cc(OC)ccc2n1
measured.on: MDA-MB-231 breast
TGI: > 100 µM
